# maps each entry to its Kd
Target: T1, human FLT3 (hFLT3) (human, UniProt P36888 27-543)
T1 construct: also called huFlt3; Fms-Like Tyrosine Kinase 3
T1 sequence (looked up): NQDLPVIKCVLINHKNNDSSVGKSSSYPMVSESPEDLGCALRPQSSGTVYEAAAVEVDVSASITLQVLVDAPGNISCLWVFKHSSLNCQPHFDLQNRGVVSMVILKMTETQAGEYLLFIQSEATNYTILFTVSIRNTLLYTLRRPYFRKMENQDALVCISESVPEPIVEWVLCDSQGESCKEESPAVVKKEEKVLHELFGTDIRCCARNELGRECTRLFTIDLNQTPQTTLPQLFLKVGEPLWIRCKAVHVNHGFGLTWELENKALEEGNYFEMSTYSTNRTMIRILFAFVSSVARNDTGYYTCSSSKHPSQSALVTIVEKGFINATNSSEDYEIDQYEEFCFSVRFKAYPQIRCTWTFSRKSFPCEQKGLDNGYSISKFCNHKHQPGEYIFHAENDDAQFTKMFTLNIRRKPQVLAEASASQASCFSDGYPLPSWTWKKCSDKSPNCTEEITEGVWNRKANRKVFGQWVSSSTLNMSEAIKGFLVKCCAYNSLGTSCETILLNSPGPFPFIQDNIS
Experiment: SPR (Biacore T200), 37 C; IgG captured on anti-human Fc, hFLT3 as analyte
Give the quantity in nM, number only.

Use the examples below as a reference point.
Binder	Kd / nM
P5F7 (IgG format) (antibody, V domains shown, IgG format, captured by anti-human Fc; the VLs differ at the N-terminus; the first entry is used) VH: EVQLLESGGGLVQPGGSLRLSCAASGFTFSSYAMNWVRQAPGKGLEWVSSISGGGRSTYYADSVKGRFTISRDNSKNTLYLQMNSLRAEDTAVYYCARDLSPSDVGWGYGFDIWGQGTLVTVSS VL: EIVLTQSPATLSLSPGERATLSCRASQSVSSNLAWYQQKPGQAPRLLIYDTFTRATGIPARFSGSGSGTDFTLTISRLEPEDFAVYYCQQYGSSPPTFGQGTRLEIK	0.24
P7H3 (IgG format) (antibody, V domains shown, IgG format, captured by anti-human Fc) VH: EVQLLESGGGLVQPGGSLRLSCAASGFTFSSYAMHWVRQAPGKGLEWVSAISGSGGSTYYADSVKGRFTISRDNSKNTLYLQMNSLRAEDTAVYYCARGTRWWWGDAFDHWGQGTLVTVSS VL: QSVLTQPPSVSVAPGKTARITCGGNNIGSKSVHWYQQKPGQAPVLVIYYDSDRPSGIPERFSGSNSGNTATLTISRVEAGDEADYYCQVWDSSTAWVFGGGTKLTVL	2
P12B6 (IgG format) (antibody, V domains shown, IgG format, captured by anti-human Fc) VH: QVQLVQSGAEVKKPGSSVKVSCKASGGTFMSYAISWVRQAPGQGLEWMGGIIPIFGIANYAQKFQGRVTITADKSTSTAYMELSSLRSEDTAVYYCARETLIYPIPFELWGQGTLVTVSS VL: EIVLTQSPGTLSLSPGERATLSCRASQIVSSSYLAWYQQKPGQAPRLLIYGASSRASGIPDRFSGSGSGTDFTLTISRLEPEDFAVYYCQQYGGSPYTFGQGTKVEIK	84

From here, focus on the item given below.
IN: Request the reported Kd associated with P7F9 (IgG format) (antibody, V domains shown, IgG format, captured by anti-human Fc) VH: EVQLLESGGGLVQPGGSLRLSCAASGFTFSSYAMSWVRQAPGKGLEWVSAIGGSGGSTYYADSVKGRFTISRDNSKNTLYLQMNSLRAEDTAMYYCARDYYAFSDPAYGGMDVWGQGTLVTVSS VL: NFMLTQPHSVSESPGKTVTISCTRSSGSIASNYVQWYQQKPGQAPVLVVYDDSDRPSGIPERFSGSNSGNTATLTISRVEAGDEADYYCQVWDSSSDHWVFGGGTKLTVL
OUT: 12
